target: Poly [ADP-ribose] polymerase 1 (Homo sapiens, UniProt P09874); assay: Inhibitory concentration against purified recombinant human Poly (ADP-ribose) polymerase 1
Sequence (P09874 whole entry): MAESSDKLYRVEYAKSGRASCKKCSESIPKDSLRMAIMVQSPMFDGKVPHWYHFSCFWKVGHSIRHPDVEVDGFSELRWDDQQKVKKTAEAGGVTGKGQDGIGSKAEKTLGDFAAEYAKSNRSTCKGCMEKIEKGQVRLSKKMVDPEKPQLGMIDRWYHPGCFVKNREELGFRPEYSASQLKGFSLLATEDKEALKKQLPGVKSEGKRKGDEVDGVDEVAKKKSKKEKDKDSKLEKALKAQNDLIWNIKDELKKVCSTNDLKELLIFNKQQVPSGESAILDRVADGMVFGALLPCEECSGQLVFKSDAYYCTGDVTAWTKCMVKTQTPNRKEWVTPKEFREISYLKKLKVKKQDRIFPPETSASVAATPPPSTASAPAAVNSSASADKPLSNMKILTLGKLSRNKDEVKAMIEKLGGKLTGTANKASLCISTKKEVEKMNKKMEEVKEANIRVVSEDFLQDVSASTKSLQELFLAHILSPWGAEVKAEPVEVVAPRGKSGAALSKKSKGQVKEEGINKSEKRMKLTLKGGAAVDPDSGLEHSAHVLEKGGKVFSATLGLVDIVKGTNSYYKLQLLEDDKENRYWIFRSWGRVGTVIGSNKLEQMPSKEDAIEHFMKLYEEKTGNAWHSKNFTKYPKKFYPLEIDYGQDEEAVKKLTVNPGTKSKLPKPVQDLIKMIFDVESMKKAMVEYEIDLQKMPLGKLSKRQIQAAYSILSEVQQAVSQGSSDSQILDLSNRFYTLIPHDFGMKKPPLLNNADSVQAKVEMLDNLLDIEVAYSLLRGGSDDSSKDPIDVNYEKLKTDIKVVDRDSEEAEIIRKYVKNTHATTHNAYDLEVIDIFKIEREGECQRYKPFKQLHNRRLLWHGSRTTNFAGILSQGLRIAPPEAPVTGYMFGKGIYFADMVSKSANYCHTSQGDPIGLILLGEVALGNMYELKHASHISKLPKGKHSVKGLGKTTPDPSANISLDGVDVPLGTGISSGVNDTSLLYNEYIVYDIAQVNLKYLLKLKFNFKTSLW
Strictly below 0.2 µM in IC50: Condition met. Otherwise: Condition not met.

Q) Could you please tell me whether IC50 recorded for `Cc1cccc2c(O)nc3cc(F)ccc3c12` is less than 0.2 µM?
A) Condition met

Q) Could you please tell me whether IC50 recorded for `O=S(=O)(O)c1ccc2c(c1)nc(O)c1cc(S(=O)(=O)O)ccc12` is less than 0.2 µM?
A) Condition not met

Next:
Q) Could you please tell me whether IC50 recorded for `O=c1[nH]c2ccc([N+](=O)[O-])cc2c2ccccc12` is less than 0.2 µM?
A) Condition met

Q) Could you please tell me whether IC50 recorded for `O=c1[nH]c2ccccc2c2ccccc12` is less than 0.2 µM?
A) Condition not met

Q) Could you please tell me whether IC50 recorded for `Cc1cccc2c(=O)[nH]c3cc(C(F)(F)F)c([N+](=O)[O-])cc3c12` is less than 0.2 µM?
A) Condition met
